# systemUnderTest: hNaV1.7 (Homo sapiens, UniProt Q15858)
# Construct: expressed in transfected cells; host or cells: HEK293
# Sequence (Q15858 whole entry): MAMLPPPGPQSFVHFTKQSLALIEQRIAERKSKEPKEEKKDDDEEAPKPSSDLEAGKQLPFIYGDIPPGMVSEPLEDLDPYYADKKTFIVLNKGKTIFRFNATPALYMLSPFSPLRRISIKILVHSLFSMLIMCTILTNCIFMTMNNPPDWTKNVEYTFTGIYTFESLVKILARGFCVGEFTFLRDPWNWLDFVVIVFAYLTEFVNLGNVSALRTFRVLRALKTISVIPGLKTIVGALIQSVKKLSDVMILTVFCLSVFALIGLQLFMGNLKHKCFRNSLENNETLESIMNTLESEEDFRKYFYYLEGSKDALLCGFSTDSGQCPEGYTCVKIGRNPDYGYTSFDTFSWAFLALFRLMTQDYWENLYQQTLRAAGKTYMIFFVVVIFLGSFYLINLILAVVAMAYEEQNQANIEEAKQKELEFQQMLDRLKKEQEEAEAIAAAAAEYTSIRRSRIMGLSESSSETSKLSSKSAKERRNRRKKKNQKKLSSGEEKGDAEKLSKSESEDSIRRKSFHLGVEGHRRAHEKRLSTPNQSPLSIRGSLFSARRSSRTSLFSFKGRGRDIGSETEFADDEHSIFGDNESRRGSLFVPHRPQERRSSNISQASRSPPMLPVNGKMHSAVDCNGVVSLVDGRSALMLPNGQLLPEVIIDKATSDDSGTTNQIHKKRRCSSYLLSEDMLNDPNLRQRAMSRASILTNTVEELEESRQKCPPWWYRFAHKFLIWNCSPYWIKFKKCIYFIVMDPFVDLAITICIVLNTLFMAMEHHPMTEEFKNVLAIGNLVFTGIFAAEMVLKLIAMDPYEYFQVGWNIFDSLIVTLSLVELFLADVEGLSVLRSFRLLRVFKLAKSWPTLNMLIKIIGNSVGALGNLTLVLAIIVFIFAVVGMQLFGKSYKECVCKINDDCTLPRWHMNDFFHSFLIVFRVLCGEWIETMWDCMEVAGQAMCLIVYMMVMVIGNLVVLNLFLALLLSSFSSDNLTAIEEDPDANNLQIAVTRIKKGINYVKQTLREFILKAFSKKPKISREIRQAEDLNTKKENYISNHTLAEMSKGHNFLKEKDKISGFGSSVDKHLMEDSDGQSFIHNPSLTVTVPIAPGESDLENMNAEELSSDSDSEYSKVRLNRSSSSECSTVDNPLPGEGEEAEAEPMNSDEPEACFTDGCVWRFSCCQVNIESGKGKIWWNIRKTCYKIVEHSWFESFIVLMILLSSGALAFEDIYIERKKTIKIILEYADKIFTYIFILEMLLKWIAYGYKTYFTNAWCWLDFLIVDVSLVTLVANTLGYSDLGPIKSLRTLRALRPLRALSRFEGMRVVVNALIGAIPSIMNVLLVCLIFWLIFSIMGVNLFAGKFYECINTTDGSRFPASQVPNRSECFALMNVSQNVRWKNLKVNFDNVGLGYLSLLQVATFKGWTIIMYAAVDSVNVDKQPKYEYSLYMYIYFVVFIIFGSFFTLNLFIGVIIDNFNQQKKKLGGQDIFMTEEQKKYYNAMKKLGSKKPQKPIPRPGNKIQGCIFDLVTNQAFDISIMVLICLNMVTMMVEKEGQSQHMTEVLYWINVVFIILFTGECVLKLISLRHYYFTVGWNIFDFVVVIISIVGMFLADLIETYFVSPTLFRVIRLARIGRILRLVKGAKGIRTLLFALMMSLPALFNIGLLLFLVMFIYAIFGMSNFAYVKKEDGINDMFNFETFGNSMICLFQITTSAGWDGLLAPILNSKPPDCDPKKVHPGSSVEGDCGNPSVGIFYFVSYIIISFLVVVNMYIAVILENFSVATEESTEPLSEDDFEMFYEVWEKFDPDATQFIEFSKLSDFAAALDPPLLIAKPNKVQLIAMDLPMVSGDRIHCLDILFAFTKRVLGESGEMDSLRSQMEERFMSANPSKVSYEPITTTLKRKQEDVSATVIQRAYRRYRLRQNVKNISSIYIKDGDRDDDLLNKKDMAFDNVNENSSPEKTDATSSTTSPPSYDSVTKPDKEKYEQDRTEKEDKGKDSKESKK
# testName: QPatch NaV1.7 assay (whole-cell patch clamp, QPatch16x)
# Type: cell-based
# cond: holding voltage −90 mV (most channels closed), HEK293-hNaV1.7 cells, read-out: QP Nav1.7 −90 mV pIC50 (converted)
Where a name gives a salt, the structure may show the parent alone.
propertyName: IC50

Q: Return reported IC50; argument: Cc1cc(C)cc(-c2ccnc([C@H]3CC[C@@]4(CCN(C)C4=O)N3)c2)c1 [Example 174, hydrochloride]
A: 126 µM

Q: Now the same for CN1CCC[C@]2(CC[C@@H](c3cc(-c4ccc(C(F)(F)F)cc4)ccn3)N2)C1=O [Example 69, hydrochloride]
A: 31.6 µM

Q: Now give it for CN1CC[C@@]2(CC[C@H](c3cc(-c4ccc(C(F)(F)F)cc4)c(OC(C)(C)C)cn3)N2)C1=O [Example 62, hydrochloride] too.
A: 79.4 µM

Q: Can you handle CCC(=O)c1ccc(F)c(-c2ccnc([C@H]3CC[C@@]4(CCN(C)C4=O)N3)c2)c1 [Example 257, hydrochloride] next?
A: 2510 µM

Q: Same read-out for CCOc1cc(-c2cc(C)nc([C@H]3CC[C@@]4(CCN(C)C4=O)N3)c2)ccc1F [Example 125, hydrochloride] ?
A: 158 µM

Q: Similarly, CN1CC[C@]2(CC[C@@H](c3cc(-c4ccc(C(F)(F)F)cc4)ccn3)N2)C1=O [Example 54, hydrochloride] ?
A: 63.1 µM

Q: What do you have for O=C1NCC[C@@]12CC[C@H](c1cc(-c3ccc(C(F)(F)F)cc3F)ccn1)N2 [Example 39, hydrochloride] ?
A: 79.4 µM

Q: Now give it for CCOc1ccc(Cl)c(-c2ccnc([C@H]3CC[C@@]4(CCN(C)C4=O)N3)c2)c1 [Example 181, hydrochloride] too.
A: 100 µM

Q: Again, but for CCOc1ccc(F)c(-c2ccnc([C@@H]3CC[C@@]4(CCN(C)C4=O)N3)c2)c1 [Example 147, hydrochloride]
A: 50.1 µM

Q: Then this compound: COc1cc(C(F)(F)F)ccc1-c1cc([C@@H]2CC[C@]3(CCN(C)C3=O)N2)ncc1C [Example 129, hydrochloride]
A: 200 µM

Q: Also need Cc1cc(-c2ccc(C(F)(F)F)cc2)cc([C@H]2CC[C@]3(CCNC3=O)N2)n1 [Example 96, hydrochloride] , thanks.
A: 20 µM

Q: One more compound: CN1CC[C@@]2(CC[C@H](c3cc(-c4cccc(C(F)(F)F)c4)ccn3)N2)C1=O [Example 75, hydrochloride]
A: 126 µM

Q: Same thing, different compound: CN1CC[C@@]2(CC[C@H](c3cc(-c4cccc5[nH]ncc45)ccn3)N2)C1=O [Example 187, hydrochloride]
A: 1000 µM

Q: How about this compound: Cc1cc(-c2cc(C(F)(F)F)ccc2C#N)cc([C@H]2CC[C@]3(CCN(C)C3=O)N2)n1 [Example 22, hydrochloride]
A: 1000 µM
